- Target system: Recombinant JAK3 (Homo sapiens, UniProt P52333)
- Construct: purchased Carna Biosciences
- Sequence (P52333 1-1124): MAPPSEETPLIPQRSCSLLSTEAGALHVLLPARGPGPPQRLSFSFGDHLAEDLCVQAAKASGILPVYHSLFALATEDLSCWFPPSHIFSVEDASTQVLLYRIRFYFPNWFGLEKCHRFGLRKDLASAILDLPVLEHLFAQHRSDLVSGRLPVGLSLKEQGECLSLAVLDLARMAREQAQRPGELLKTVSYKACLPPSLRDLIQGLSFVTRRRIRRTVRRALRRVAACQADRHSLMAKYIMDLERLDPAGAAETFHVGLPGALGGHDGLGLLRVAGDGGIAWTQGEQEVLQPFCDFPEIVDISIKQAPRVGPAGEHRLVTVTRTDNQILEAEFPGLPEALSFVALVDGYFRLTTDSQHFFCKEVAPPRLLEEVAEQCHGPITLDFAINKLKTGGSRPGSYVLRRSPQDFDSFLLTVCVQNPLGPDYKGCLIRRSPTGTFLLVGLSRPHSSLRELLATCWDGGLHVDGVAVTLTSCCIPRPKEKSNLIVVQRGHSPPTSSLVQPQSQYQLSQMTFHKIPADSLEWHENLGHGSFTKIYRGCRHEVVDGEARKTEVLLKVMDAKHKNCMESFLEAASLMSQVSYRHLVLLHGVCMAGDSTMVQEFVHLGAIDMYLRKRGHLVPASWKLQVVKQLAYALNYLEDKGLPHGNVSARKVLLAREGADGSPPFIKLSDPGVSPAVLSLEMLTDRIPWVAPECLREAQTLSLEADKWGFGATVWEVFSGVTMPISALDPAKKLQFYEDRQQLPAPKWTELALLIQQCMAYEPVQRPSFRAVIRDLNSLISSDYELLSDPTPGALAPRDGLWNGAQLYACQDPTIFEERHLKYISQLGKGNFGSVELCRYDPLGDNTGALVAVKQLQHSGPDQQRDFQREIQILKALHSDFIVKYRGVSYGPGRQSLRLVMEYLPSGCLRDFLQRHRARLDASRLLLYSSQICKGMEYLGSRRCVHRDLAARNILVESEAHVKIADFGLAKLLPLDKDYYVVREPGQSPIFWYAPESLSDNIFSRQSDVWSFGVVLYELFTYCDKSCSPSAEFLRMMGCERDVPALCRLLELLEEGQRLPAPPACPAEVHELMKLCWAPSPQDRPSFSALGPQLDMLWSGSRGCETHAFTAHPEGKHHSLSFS
- Test name: JAK biochemical assay (LANCE Ultra TR-FRET), JAK3
- Details: recombinant JAK3, TR-FRET; read-out: Biochemical Assay (μM) JAK3
Endpoint label: IC50

{"columns": ["Compound", "Target system", "IC50"],
 "data": [
  ["N#CC1CCN(C(=O)n2cc(-c3ccnc4[nH]cnc34)cn2)CC1 [Example 1067]", "Recombinant JAK3 (Homo sapiens, UniProt P52333)", "> 0.5 µM"],
  ["OC(c1ccc(-n2cc(-c3ccnc4[nH]cnc34)cn2)nc1)(C1CCNCC1)C(F)(F)F (centres unmarked) [Example 1135]", "Recombinant JAK3 (Homo sapiens, UniProt P52333)", "< 0.1 µM"],
  ["O=C(NCC(F)(F)F)Nc1ncc(-c2ccnc3[nH]c(=O)[nH]c23)cn1 [Example 1004]", "Recombinant JAK3 (Homo sapiens, UniProt P52333)", "> 10 µM"],
  ["N#CC(c1ccc(-n2cc(-c3ccnc4[nH]cnc34)cn2)nc1)C1CC1 (centres unmarked) [Example 1110]", "Recombinant JAK3 (Homo sapiens, UniProt P52333)", "> 0.1 µM"],
  ["O=C(CCC(c1ccc(-n2cc(-c3ccnc4[nH]cnc34)cn2)nc1)C(F)(F)F)NC1CC1 (centres unmarked) [Example 1150]", "Recombinant JAK3 (Homo sapiens, UniProt P52333)", "< 0.1 µM"]
]}

Query :: Lab note: need IC50 with Recombinant JAK3 (Homo sapiens, UniProt P52333) for entry COCCC(c1ccc(-n2cc(-c3ccnc4[nH]cnc34)cn2)nc1)C(F)(F)F (centres unmarked) [Example 1155] , please look it up.
Result :: > 0.1 µM

Query :: Lab note: need IC50 with Recombinant JAK3 (Homo sapiens, UniProt P52333) for entry N#CC1CC(NC(=O)n2cc(-c3ccnc4[nH]c(=O)[nH]c34)cn2)C1 (centres unmarked) [Example 1056] , please look it up.
Result :: < 0.5 µM
